Biological target: T1, human MT1 MMP14 protein, hemopexin domain (obtained from Merck Millipore) (human, UniProt P50281 319-511, limits assumed, randomly biotinylated (EZ-Link Sulfo-NHS-LC-LC-Biotin))
T1 construct: domain: hemopexin domain; Target of the SPR assay, captured on streptavidin; also called biotinylated MT1 MMP14
Test: SPR, biotinylated target on streptavidin chip
Experimental: Streptavidin was immobilized on the chip using standard amine-coupling chemistry at 25° C. with HBS-N (10 mM HEPES, 0.15 M NaCl, pH 7.4) as the running buffer. […] Buffer was changed to PBS/0.05% Tween 20 and a dilution series of the peptides was prepared in this buffer with a final DMSO concentration of 0.5%. […] Data were corrected for DMSO excluded volume effects. […]
Numbered stars: 1 amine (or outer) side, 2 acyl side, 3 side chain; on linkers, the order of the positions; unused ones are H or OH. Bridge positions count the residues as written; N and C are the ends. Square brackets hold non-standard residues; d marks the D form. Ends that are not written are not given here. TATA = O=C(CC[*:1])N1CN(C(=O)CC[*:2])CN(C(=O)CC[*:3])C1; 2Nal = N[C@@H](Cc1ccc2ccccc2c1)C(=O)O; hArg = N=C(N)NCCCC[C@H](N)C(=O)O
RECORDED ENDPOINT: Kd (nM)
Return type: number; implicit unit nM.

Requested read-out: Kd. Entry: Ac-LPPCV[hArg]ECALL[2Nal]P[hArg]TC (linker 4-8-16 via TATA) [BCY10223]
400
